assayed-target: Ephrin type-B receptor 4 (Homo sapiens, UniProt P54760)
Sequence (P54760 whole entry): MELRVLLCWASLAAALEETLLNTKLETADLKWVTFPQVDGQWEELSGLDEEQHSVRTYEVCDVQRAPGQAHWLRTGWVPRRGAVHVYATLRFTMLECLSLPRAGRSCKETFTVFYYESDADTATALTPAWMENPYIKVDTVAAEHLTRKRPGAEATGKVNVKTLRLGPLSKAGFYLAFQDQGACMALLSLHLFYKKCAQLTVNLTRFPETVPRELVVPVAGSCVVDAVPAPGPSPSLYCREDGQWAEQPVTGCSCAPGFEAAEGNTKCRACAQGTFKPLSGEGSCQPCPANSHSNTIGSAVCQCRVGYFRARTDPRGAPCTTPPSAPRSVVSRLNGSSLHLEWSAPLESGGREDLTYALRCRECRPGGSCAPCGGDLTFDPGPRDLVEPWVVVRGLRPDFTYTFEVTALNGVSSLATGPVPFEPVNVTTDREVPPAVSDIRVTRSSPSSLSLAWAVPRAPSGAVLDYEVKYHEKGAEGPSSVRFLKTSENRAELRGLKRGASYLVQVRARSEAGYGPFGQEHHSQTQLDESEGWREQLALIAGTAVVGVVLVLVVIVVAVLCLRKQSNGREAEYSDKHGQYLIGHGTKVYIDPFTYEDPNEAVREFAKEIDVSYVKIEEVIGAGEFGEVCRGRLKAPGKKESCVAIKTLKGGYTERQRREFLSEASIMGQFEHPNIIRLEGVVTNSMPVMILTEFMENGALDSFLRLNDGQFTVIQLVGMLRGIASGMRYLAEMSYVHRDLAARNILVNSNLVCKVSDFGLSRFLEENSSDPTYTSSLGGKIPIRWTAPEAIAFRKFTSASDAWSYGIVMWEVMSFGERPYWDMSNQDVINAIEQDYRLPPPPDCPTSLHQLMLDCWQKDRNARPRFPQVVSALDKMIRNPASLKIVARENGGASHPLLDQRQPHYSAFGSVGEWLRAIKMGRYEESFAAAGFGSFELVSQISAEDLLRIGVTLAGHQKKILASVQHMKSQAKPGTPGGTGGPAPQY
property-label: IC50

1. Cc1ccc(C(=O)Nc2cccc(C(F)(F)F)c2)cc1Nc1ncccc1-c1ccncn1 = < 25 nM

====

assayed-target: Tyrosine-protein kinase SYK (Homo sapiens)
property-label: IC50 (µM)

1. CNc1ncnc(-c2cccnc2Oc2ccc(F)c(C(=O)Nc3cc(C(F)(F)F)ccc3N(C)CCCN(C)C)c2)n1 = 25

====

assay-notes: Solubility in phosphate buffer at pH 7.0
Assay type: physicochemical
property-label: solubility (µg/mL)

1) CNc1ncnc(-c2cccnc2Oc2ccc(F)c(C(=O)Nc3cc(C(F)(F)F)ccc3N(C)CCCN(C)C)c2)n1 = 44

====

assayed-target: Angiopoietin-1 receptor (Homo sapiens, UniProt Q02763)
Sequence (Q02763 whole entry): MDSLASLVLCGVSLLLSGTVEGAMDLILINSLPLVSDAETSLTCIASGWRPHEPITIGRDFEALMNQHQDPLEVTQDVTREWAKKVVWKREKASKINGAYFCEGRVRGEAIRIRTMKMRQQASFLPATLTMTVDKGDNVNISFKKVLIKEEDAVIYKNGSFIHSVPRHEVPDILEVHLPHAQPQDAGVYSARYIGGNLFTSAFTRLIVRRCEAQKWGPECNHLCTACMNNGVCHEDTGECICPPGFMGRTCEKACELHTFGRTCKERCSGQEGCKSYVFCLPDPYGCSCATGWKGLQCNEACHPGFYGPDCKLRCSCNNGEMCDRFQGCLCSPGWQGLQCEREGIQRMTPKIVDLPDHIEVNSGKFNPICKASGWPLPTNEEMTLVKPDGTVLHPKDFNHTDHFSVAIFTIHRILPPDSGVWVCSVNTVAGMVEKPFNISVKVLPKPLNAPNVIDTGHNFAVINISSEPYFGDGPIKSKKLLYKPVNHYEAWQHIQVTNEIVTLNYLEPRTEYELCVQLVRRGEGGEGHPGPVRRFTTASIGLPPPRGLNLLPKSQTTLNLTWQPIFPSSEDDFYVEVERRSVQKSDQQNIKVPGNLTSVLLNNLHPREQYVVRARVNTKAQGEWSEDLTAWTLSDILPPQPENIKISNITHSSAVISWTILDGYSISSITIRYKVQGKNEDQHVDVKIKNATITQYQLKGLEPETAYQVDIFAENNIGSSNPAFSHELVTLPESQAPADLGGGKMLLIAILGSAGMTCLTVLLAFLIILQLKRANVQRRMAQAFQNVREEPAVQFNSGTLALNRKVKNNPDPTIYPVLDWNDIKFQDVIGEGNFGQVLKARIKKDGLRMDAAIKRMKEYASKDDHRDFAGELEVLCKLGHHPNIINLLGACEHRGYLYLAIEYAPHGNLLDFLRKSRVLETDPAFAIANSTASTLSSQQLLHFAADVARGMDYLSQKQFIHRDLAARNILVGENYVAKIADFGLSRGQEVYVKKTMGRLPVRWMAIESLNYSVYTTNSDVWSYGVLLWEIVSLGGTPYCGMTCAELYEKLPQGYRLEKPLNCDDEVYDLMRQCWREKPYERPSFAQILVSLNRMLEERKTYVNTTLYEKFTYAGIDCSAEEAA
assay-notes: Inhibition of Tie2 by HTRF assay
Entries and their measured IC50 follow.
property-label: IC50

1. COc1ccc(C2CCCCC2)cc1NC(=O)c1ccc(C)c(Oc2ncccc2-c2ccnc3ccccc23)c1 = > 25 µM
2. O=C(Nc1ccc(Oc2ccccc2)cc1)c1cccnc1NCc1ccncc1 = ≥ 25 µM
3. COc1ccc(C2CCCCC2)cc1NC(=O)c1ccc(C)c(Oc2ncccc2-c2ncnc3cc(OC)c(OC)cc23)c1 = > 25 µM
